B1: KAT8 regulatory NSL complex subunit 2, residues 28 to 91; numbered along this chain, Q9H9L4 (parent)
chain: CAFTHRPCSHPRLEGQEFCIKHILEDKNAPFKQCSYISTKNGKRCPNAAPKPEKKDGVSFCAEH

Variants of: B1
Test method notes: abundance fitness (aPCA) (normalised: wild type 0, dead -1); higher = more abundant; growth selection in yeast, the domain comes from the species named
Experimental conditions: Homo sapiens
Where abundance fitness equals or exceeds -0.1, the correct label is yes; where it does not, the label is no.

Sample answers from the record:
T4D | no
L13N | no
I20G | no

Query string: abundance fitness >= -0.1 for R6V ?
Result string: yes

Query string: Is it the case that C61G has abundance fitness reaching or exceeding -0.1?
Result string: no

Query string: Is abundance fitness for P50A at or above -0.1?
Result string: no

Query string: Could you verify whether the entry R44K shows abundance fitness of no less than -0.1?
Result string: yes

Query string: Could you please find out whether P30I has abundance fitness that meets -0.1 or exceeds it?
Result string: no

Query string: I'd appreciate it if you could say whether K43E has abundance fitness at least equal to -0.1.
Result string: yes

Query string: Assess whether reported abundance fitness for G42Y sits at -0.1 or higher.
Result string: yes

Query string: Say whether S35K shows abundance fitness of -0.1 or more.
Result string: yes

Query string: Reported abundance fitness reaches at least -0.1 for N28H ?
Result string: yes

Query string: Exam item: decide whether the reported abundance fitness for C19M is at least -0.1.
Result string: no

Query string: # bool: abundance fitness of S35G >= -0.1
Result string: yes

Query string: Given E17G , state whether its abundance fitness is at least -0.1.
Result string: no

Data origin: the Human Domainome abundance scans (Beltran et al. 2025)
